- Test system: DAF-12 nuclear receptor (Haemonchus contortus)
- experiment-description: hcDAF-12 driven luciferase reporter activation – cell-based, luminescence, HEK293, lit1-tk-luc reporter, primary screen (AID 652067);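 also: 100% = response to 3 µM Δ7-dafachronic acid high control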
- test-settings: HEK293 hcDAF-12 lit1-tk-luc reporter, at 6.8 µM, 0% DMSO, 100% Δ7-dafachronic acid
Screen size: about 370,000 compounds; about 5,400 (1.5%) were called active.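 The calls were made as follows: active = activation above the mean of all tested compounds plus 3 SD (cut at about 5.5% in these data); inactive = the rest.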 The sample as a whole holds a higher share of actives than the screen did.
Your response should consist of one outcome taken from true for active, false for inactive

compound	group
CC(C)CNc1cccc2c1S(=O)(=O)N[C@H](CC(C)C)CO2	false
CCN(CC)CCn1c(/N=C/c2cc(Br)ccc2O)nc2ccccc21	true
O=C(CSc1nnc(-c2cccc(Cl)c2)n1Cc1ccco1)Nc1ccc(OCc2ccccc2)cc1	false
Cc1ccc(C)c(NC(=O)CCS(=O)(=O)c2ccccc2)c1	false
COC(=O)C1CN(Cc2ccc(F)cc2)CCS(=O)(=O)N1Cc1ccc(Cl)cc1 (centres undefined)	false

Consider the additional compound presented here.
Write down the call the test reported for this compound. Item: O=C(CSc1nnc(-c2ccccc2)n1Cc1ccco1)Nc1ccccc1-c1ccccc1
false

====

- System: DAF-12 nuclear receptor (Haemonchus contortus)
- experiment-description: hcDAF-12 driven luciferase reporter activation – cell-based, luminescence, HEK293, lit1-tk-luc reporter, primary screen (AID 652067);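 also: 100% = response to 3 µM Δ7-dafachronic acid high control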
- test-settings: HEK293 hcDAF-12 lit1-tk-luc reporter, at 6.8 µM, stronger effect = higher value, 0% DMSO, 100% Δ7-dafachronic acid
Among all 370,000 compounds or so, about 5,400 (1.5%) were called active. What follows is part of a selection rich in actives, with near analogues and random picks from the rest.
experimental-readout: activation (%)
Could you give me the number in %? Just the number is fine.

structure-as-smiles	units-text	activation
COC(=O)[C@]12C[C@H](CC(=O)NCc3ccc(OC)c(OC)c3)C(=O)N(Cc3ccccc3)C1=C[C@H](C(C)C)O[C@@H]2C1CC1	%	-0.82
O=C(NC1=CC(=O)c2ccccc2C1=O)c1ccccc1	%	-0.21

Proceed to the following item.
// fetch activation for Cc1c(Cl)cccc1NC(=O)NCCCN1CCCC1=O ; system: DAF-12 nuclear receptor (Haemonchus contortus)
-0.07
